System: RXF 393 renal
Assay Remarks: NCI-60 one-dose screen, 48 h
Condition Summary: 10 µM unless noted
The panel holds about 83,000 compounds, 20% with a hit somewhere; the sample as a whole holds those more often. Active and inactive are the calls of the source. Rule for the calls: active = growth percent below 10; inactive = the rest.
Pick one and only one: active, inactive

Check the results log: what was the call for CCCCCCCCCCCCCCCCCCOc1ccccc1CC(=O)OCC[N+]1(C)CCOCC1 ?
active

---

Overview of reported growth across a group of compounds:
Test system: 786-0 renal
Assay Remarks: NCI-60 one-dose screen, 48 h (100 = growth as untreated, 0 = no growth, -100 = all killed)
Condition Summary: 10 µM unless noted
The panel holds about 83,000 compounds, 20% with a hit somewhere; the sample as a whole holds those more often.
Provide the reading as a plain figure in %.

compound=O=C(CN1CCN(c2cc3c(cc2F)c(=O)c(C(=O)O)cn3C2CC2)CC1)N/N=C/c1ccncc1 assay_system="786-0 renal" reported_measurement=90.8
compound="CCCC(O)Cn1ncc(C(=O)OCC)c1NC(=O)NCc1cccc(F)c1 (stereo not given)" assay_system="786-0 renal" reported_measurement=73.4
compound=Clc1nccc2c(-c3csc(-c4c[nH]c5ccccc45)n3)c[nH]c12 assay_system="786-0 renal" reported_measurement=27.7
compound=Cc1ccc(Nc2nc(-c3ccc(F)cc3)c(C#N)c(=O)n2C)cc1 assay_system="786-0 renal" reported_measurement=67.5
compound=Cc1c(Cl)cccc1C(=O)Nc1nc2c(s1)CN(C(=O)Nc1cccc(C(F)(F)F)c1)CC2 assay_system="786-0 renal" reported_measurement=29.1
compound=CCOC(=O)Cn1c(=O)c2c3ccccc3n(C)c2n2nnc(-c3ccccc3)c12 assay_system="786-0 renal" reported_measurement=98
compound=Cn1cc(-c2nn3cc(-c4ccccc4)nc3s2)c2ccccc21 assay_system="786-0 renal" reported_measurement=99.4
compound=N=C(N)c1ccc(-c2ccc(-c3ccc(Cl)cc3)o2)o1 assay_system="786-0 renal" reported_measurement=1.68

Identify growth associated with the compound Cc1[nH]c(C(=O)Nc2cccc(OC3CCNCC3)c2)c(Cl)c1Cl
63.8

Identify growth associated with the compound COc1ccc(OC)c(Nc2nnc(-c3ccc(Cl)cc3)o2)c1
26.4

Identify growth associated with the compound O=C(NCc1ccccc1O)c1cccc2ccccc12
72.7

Identify growth associated with the compound Cn1c(/C=C/[N+](=O)[O-])cc2ccccc21
75.7

---

System: RXF 393 renal
Assay Remarks: NCI-60 one-dose screen, 48 h
Condition Summary: 10 µM unless noted
Compounds without any hit were thinned out: in the full panel of roughly 83,000, 20% have a hit. Activity calls are given as the source filed them. How the source made its calls: active means growth percent below 10; inactive means the rest.
Pick one and only one: active, inactive

Here's what some known entries look like.
compound="COC(=O)/C(CCC=C(C)C)=C1\\[C@@H](OC(C)=O)C[C@@]2(C)[C@H]1CC(=O)[C@H]1[C@@]3(C)CCC(N4CCCC4)[C@@H](C)[C@@H]3CC[C@@]12C (stereo partly drawn)" classification=inactive
compound=Cn1cc(-c2nonc2-c2c[nH]c3ccccc23)c2ccccc21 classification=active
compound="Cc1ccc(C)c2c1C(O)(C#Cc1ccccc1)c1ccccc1C2(O)C#Cc1ccccc1 (stereo not drawn)" classification=inactive

Check the results log: what was the call for COc1ccc(/C(C)=C(\c2ccc(OCCN3CCCCCC3)cc2)c2ccc(OC(=O)c3ccccc3)cc2)cc1 ?
inactive

Check the results log: what was the call for Fc1ccc2c(c1)c(-c1nc(-c3c[nH]c4ncccc34)cs1)cn2CCCN1CCOCC1 ?
inactive

Check the results log: what was the call for COc1cc2ncnc(Nc3ccc(F)c(Cl)c3)c2cc1OCC(=O)N1CCN(c2ccc(F)cc2)CC1 ?
inactive

Check the results log: what was the call for N=C(N)SCc1cccc2c(CSC(=N)N)cccc12 ?
inactive

Check the results log: what was the call for CCn1cc(C(=O)N/N=C/c2ccc(Br)cc2)c(=O)c2cc(F)c(N3CCNC(C)C3)c(F)c21 (stereo not drawn) ?
inactive
